- method description: LNP size and polydispersity index by Malvern Zetasizer dynamic light scattering (CA HA modFlu mRNA LNPs)
- Format: physicochemical
- experimental parameters: LNP of the ionizable lipid:cholesterol:DSPC:ALC-0159 about 46.3:42.7:9.4:1.6, N:P about 6:1, CA HA modFlu mRNA; DLS
Below, each entry is listed alongside its reported Size (nm).
reported metric: Size (nm)

CCCCCCCCC(CCCCCCC)C(=O)O[C@@H]1CC2(CCN(CCCCO)CC2)C[C@H]1OC(=O)C(CCCCCCC)CCCCCCCC (mixture of isomers)	78
CCCCCCCC(CCCCCCC)OC(=O)CCCCCC(=O)O[C@@H]1CC2(CCN(CCCCO)CC2)C[C@H]1OC(=O)CCCCCC(=O)OC(CCCCCCC)CCCCCCC (racemic)	107
CCCCCCCCC(CCCCCCC)C(=O)OCC(COC(=O)C(CCCCCCC)CCCCCCCC)N1CCC2(CCN(CCCCO)CC2)CC1 (centres unmarked)	96
CCCCCCCC(CCCCCCC)C(=O)OCC(COC(=O)C(CCCCCCC)CCCCCCC)N1CCC2(CCN(CCCCO)CC2)CC1	90
CCCCCCCCCCCCCCCC(=O)OCC(COC(=O)CCC(CCCC)C(CCCC)CCCC)N1CCC2(CCN(CCCCO)CC2)CC1 (centres unmarked)	92
CCCCCCCCC(CC1CCC1)C(=O)OCC(COC(=O)C(CCCCCCCC)CC1CCC1)N1CCC2(CCN(CCCCO)CC2)CC1 (centres unmarked)	102
CCCCCCCCCCCCC(CCCCCCC)C(=O)O[C@@H]1CC2(CCN(CCCCO)CC2)C[C@H]1OC(=O)C(CCCCCCC)CCCCCCCCCCCC (mixture of isomers)	94
CCCCCCCC(CCCCCCC)C(=O)OCC(COC(=O)C(CCCCCCC)CCCCCCC)N1CCC2(CCN(CCCCO)C2)CC1	107
CCCCCCCCC(CCCCCCCC)C(=O)O[C@@H]1CC2(CCN(CCCCO)CC2)C[C@H]1OC(=O)C(CCCCCCCC)CCCCCCCC (racemic)	80
CCCCCCCC(CCCCCCC)C(=O)OCC(COC(=O)C(CCCCCCC)CCCCCCC)N1CCC2(CCN(CCCCCO)CC2)CC1	137
CCCCCCCC(CCCCCCC)C(=O)OCCC(CCOC(=O)C(CCCCCCC)CCCCCCC)N1CCC2(CCN(CCCCO)CC2)CC1	147
CCCCCCCCC(CCCCCC)CC(=O)OCC(COC(=O)CC(CCCCCC)CCCCCCCC)N1CCC2(CCN(CCCCO)CC2)CC1 (centres unmarked)	96
CCCCCCCCCCCCC(CCCCCCC)C(=O)OCC(COC(=O)C(CCCCCCC)CCCCCCCCCCCC)N1CCC2(CCN(CCCCO)CC2)CC1 (centres unmarked)	121
CCCCCCCCC(CCCCCCCC)C(=O)OCC(COC(=O)C(CCCCCCCC)CCCCCCCC)N1CCC2(CCN(CCCCO)CC2)CC1	82
CCCCCCCCC(CCCCCC)C(=O)OCC(COC(=O)C(CCCCCC)CCCCCCCC)N1CCC2(CCN(CCCCO)C2)CC1 (centres unmarked)	133
CCCCCCCCC(C(=O)OCC(COC(=O)C(CCCCCCCC)C1CCC1)N1CCC2(CCN(CCCCO)CC2)CC1)C1CCC1 (centres unmarked)	97
CCCCCCCCC(CC1CC=CC1)C(=O)OCC(COC(=O)C(CCCCCCCC)CC1CC=CC1)N1CCC2(CCN(CCCCO)CC2)CC1 (centres unmarked)	102
CCCCCCCC(CCCCCCC)C(=O)OCC(COC(=O)C(CCCCCCC)CCCCCCC)N1CCC2(CCN(CCCCCO)C2)C1 (centres unmarked)	119
CCCCCCCCC(CCC1CCC1)C(=O)OCC(COC(=O)C(CCCCCCCC)CCC1CCC1)N1CCC2(CCN(CCCCO)CC2)CC1 (centres unmarked)	136
CCCCCCCCC(CCCCCC)C(=O)OCC(COC(=O)C(CCCCCC)CCCCCCCC)N1CC2(CCN(CCCCO)CC2)C1 (centres unmarked)	130
CCCCCCCC(CCCCCCC)CCC(=O)OCC(COC(=O)CCC(CCCCCCC)CCCCCCC)N1CCC2(CCN(CCCCO)CC2)CC1	117
CCCCCCCCC(CCCCCC)C(=O)OCC(COC(=O)C(CCCCCC)CCCCCCCC)N1CCC2(CCN(C(C)CCCO)CC2)CC1 (centres unmarked)	159
CCCCCCCCC(CCCCCC)C(=O)OCC(COC(=O)C(CCCCCC)CCCCCCCC)N1CC2(CCN(CCCCCO)CC2)C1 (centres unmarked)	160
CCCCCCCCC(CCCCCC)C(=O)O[C@@H]1CC2(CCN(CCCCO)CC2)C[C@H]1OC(=O)C(CC)CCCCCCC (mixture of isomers)	116
CCCCC(CCCC)C(CCCC)CCC(=O)OCC(COC(=O)CCC(CCCC)C(CCCC)CCCC)N1CCC2(CCN(CCCCO)CC2)CC1 (centres unmarked)	146
CCCCCCCCC(CCCCCC)C(=O)OCC(COC(=O)C(CCCCCC)CCCCCCCC)N1CCC2(CCN(CCCCO)CC2)CC1 (centres unmarked)	144
